protocol_summary: protein stability index of a GFP-peptide fusion (yeast GPS) (PSI 1-4); higher = more stable; sorted into four equal gates, so the index is relative within each strain
assay_conditions: ubr1∆
Label criterion met when protein stability index >= 3; otherwise criterion not met.

These solved cases illustrate the format of a correct answer.
1. PSLYRLLNILITYGIIK [SRB8]: criterion not met
2. LTGEATANALPLPAVFS [RPL4A]: criterion not met
3. QRRVLLSAPLSKELRAQ [RPL26A]: criterion not met

**Query** Is it the case that EIDVENHDRINISNNLQ [RPN8] has protein stability index reaching or exceeding 3?
**Result** criterion met

**Query** Check if protein stability index >= 3 (inclusive). Item: GNVVMDIGKGAETTFLQ [RPC53]
**Result** criterion met
